# maps each entry to its % Ctrl, ABL1(Y253F)-phosphorylated
Target: kinases (Homo sapiens, UniProt P00519, Y253F)
Construct: purchased Eurofins/DiscoveRx; host or cells: E. coli BL21-derived host (T7 phage display) for most kinases; HEK-293 for the rest
Experiment: KINOMEscan kinase binding assay (Eurofins/DiscoveRx), % Ctrl
Details: 1 μM; target ABL1(Y253F)-phosphorylated
readout_kind: % Ctrl, ABL1(Y253F)-phosphorylated (% Ctrl)

>  <molecule>
CN1CCOc2cc3c(cc2Cl)NC(=O)/C3=C\c2[nH]ccc2C(=O)N(C)CC1 [Ex. 164]

>  <readout_kind>
% Ctrl, ABL1(Y253F)-phosphorylated

>  <observed>
0.1

$$$$
>  <molecule>
Cc1cc2c([nH]1)/C=C1\C(=O)Nc3cnc(cc31)-c1cnn(C)c1CN(C)CCN(C)C2=O [Ex. 172]

>  <readout_kind>
% Ctrl, ABL1(Y253F)-phosphorylated

>  <observed>
0.2

$$$$
>  <molecule>
Cc1cc2c([nH]1)/C=C1\C(=O)Nc3ccc(cc31)-c1cnn(C)c1OCCCN(C)C2=O [Ex. 166]

>  <readout_kind>
% Ctrl, ABL1(Y253F)-phosphorylated

>  <observed>
11

$$$$
>  <molecule>
Cc1cc2c([nH]1)/C=C1\C(=O)Nc3ccc(cc31)-c1c(noc1C(C)C)COCCN(C)C2=O [Ex. 161]

>  <readout_kind>
% Ctrl, ABL1(Y253F)-phosphorylated

>  <observed>
78

$$$$
>  <molecule>
Cc1cc2c([nH]1)/C=C1\C(=O)Nc3cc(Cl)c(cc31)SCCOCCN(C)C2=O [Ex. 169]

>  <readout_kind>
% Ctrl, ABL1(Y253F)-phosphorylated

>  <observed>
0.1

$$$$

* * *

# maps each entry to its % Ctrl, FLT3(D835Y)
Target: kinases (Homo sapiens, UniProt P36888, D835Y)
Construct: purchased Eurofins/DiscoveRx; host or cells: E. coli BL21-derived host (T7 phage display) for most kinases; HEK-293 for the rest
Test: KINOMEscan kinase binding assay (Eurofins/DiscoveRx), % Ctrl
Conditions: 1 μM; FLT3(D835Y)

>  <mol_smiles>
Cc1cc2c([nH]1)/C=C1\C(=O)Nc3ccc(cc31)O[C@@H](C)COCCN(C)C2=O

>  <measured_on>
kinases (Homo sapiens, UniProt P36888, D835Y)

>  <% Ctrl, FLT3(D835Y) / % Ctrl>
28

$$$$
>  <mol_smiles>
Cc1cc2c([nH]1)/C=C1\C(=O)Nc3cnc(cc31)-c1cnn(C)c1COCCNC2=O

>  <measured_on>
kinases (Homo sapiens, UniProt P36888, D835Y)

>  <% Ctrl, FLT3(D835Y) / % Ctrl>
72

$$$$
>  <mol_smiles>
Cc1cc2c([nH]1)/C=C1\C(=O)Nc3cc(Cl)c(cc31)OCCOCCN(C)C2=O

>  <measured_on>
kinases (Homo sapiens, UniProt P36888, D835Y)

>  <% Ctrl, FLT3(D835Y) / % Ctrl>
2.3

$$$$
>  <mol_smiles>
Cc1cc2c([nH]1)/C=C1\C(=O)Nc3ccc(cc31)-c1cnn(C)c1CNCCN(C)C2=O

>  <measured_on>
kinases (Homo sapiens, UniProt P36888, D835Y)

>  <% Ctrl, FLT3(D835Y) / % Ctrl>
0

$$$$
>  <mol_smiles>
CNC(=O)[C@H]1CN(C)C(=O)c2cc(C)[nH]c2/C=C2\C(=O)Nc3cc(Cl)c(cc32)OCCO1

>  <measured_on>
kinases (Homo sapiens, UniProt P36888, D835Y)

>  <% Ctrl, FLT3(D835Y) / % Ctrl>
13

$$$$

* * *

Target: kinases (Homo sapiens, UniProt P00533, DEL752-759)
Construct: purchased Eurofins/DiscoveRx; host or cells: E. coli BL21-derived host (T7 phage display) for most kinases; HEK-293 for the rest
Assay: KINOMEscan kinase binding assay (Eurofins/DiscoveRx), % Ctrl
Settings: 1 μM; EGFR(S752-I759del)
readout_kind: % Ctrl, EGFR(S752-I759del) (% Ctrl)

>  <mol_smiles>
CNC(=O)[C@H]1CN(C)C(=O)c2cc(C)[nH]c2/C=C2\C(=O)Nc3cc(Cl)c(cc32)OCCO1

>  <observed>
92

$$$$
>  <mol_smiles>
Cc1cc2c([nH]1)/C=C1\C(=O)Nc3ccc(cc31)-c1c(C)n[nH]c1CNCCN(C)C2=O

>  <observed>
57

$$$$
>  <mol_smiles>
Cc1cc2c([nH]1)/C=C1\C(=O)Nc3ccc(cc31)CN(C)C(=O)COCCNC2=O

>  <observed>
54

$$$$
>  <mol_smiles>
Cc1cc2c([nH]1)/C=C1\C(=O)Nc3cc(Cl)c(cc31)OCCO[C@@H](C(=O)NC1CCNCC1)CN(C)C2=O

>  <observed>
88

$$$$
>  <mol_smiles>
Cc1cc2c([nH]1)/C=C1\C(=O)Nc3ccc(cc31)-c1cnn(C)c1CNCCN(C)C2=O

>  <observed>
73

$$$$
>  <mol_smiles>
Cc1cc2c([nH]1)/C=C1\C(=O)Nc3cc(Cl)c(cc31)OCCO[C@@H](C(=O)N(C)C)CN(C)C2=O

>  <observed>
98

$$$$
>  <mol_smiles>
Cc1cc2c([nH]1)/C=C1\C(=O)Nc3ccc(cc31)-c1ccnn1CCOCCN(C)C2=O

>  <observed>
89

$$$$
>  <mol_smiles>
Cc1cc2c([nH]1)/C=C1\C(=O)Nc3ccc(cc31)-c1ccnn1CCOCCNC2=O

>  <observed>
80

$$$$
>  <mol_smiles>
Cc1cc2c([nH]1)/C=C1\C(=O)Nc3ccc(cc31)-c1cnn(C)c1CN(C)CCN(C)C2=O

>  <observed>
32

$$$$
>  <mol_smiles>
Cc1cc2c([nH]1)/C=C1\C(=O)Nc3ccc(cc31)-c1ccnn1CCNCCNC2=O

>  <observed>
91

$$$$
>  <mol_smiles>
Cc1cc2c([nH]1)/C=C1\C(=O)Nc3ccc(cc31)O[C@@H](C)COCCN(C)C2=O

>  <observed>
90

$$$$
>  <mol_smiles>
Cc1cc2c([nH]1)/C=C1\C(=O)Nc3ccc(cc31)OCCOCCN(C)C2=O

>  <observed>
63

$$$$
>  <mol_smiles>
Cc1cc2c([nH]1)/C=C1\C(=O)Nc3cnc(nc31)N(C)CCCOCCN(C)C2=O

>  <observed>
74

$$$$
>  <mol_smiles>
Cc1cc2c([nH]1)/C=C1\C(=O)Nc3ccc(nc31)-c1ccccc1OCCCNC2=O

>  <observed>
72

$$$$
>  <mol_smiles>
Cc1cc2c([nH]1)/C=C1\C(=O)Nc3ccc(cc31)-c1c(noc1C)COCCN(C)C2=O

>  <observed>
98

$$$$
>  <mol_smiles>
Cc1cc2c([nH]1)/C=C1\C(=O)Nc3cc(Cl)c(cc31)OCCO[C@@H](C(=O)N[C@@H]1CCNC1)CN(C)C2=O

>  <observed>
95

$$$$
>  <mol_smiles>
Cc1cc2c([nH]1)/C=C1\C(=O)Nc3cnc(cc31)-c1cnn(C)c1COCCNC2=O

>  <observed>
93

$$$$
>  <mol_smiles>
Cc1cc2c([nH]1)/C=C1\C(=O)Nc3ccc(cc31)OCCOCCNC2=O

>  <observed>
78

$$$$
>  <mol_smiles>
Cc1cc2c([nH]1)/C=C1\C(=O)Nc3ccc(cc31)-c1cnn(C)c1COCCN(C)C2=O

>  <observed>
68

$$$$
>  <mol_smiles>
Cc1cc2c([nH]1)/C=C1\C(=O)Nc3cc(Cl)c(cc31)OCCO[C@@H](C(=O)NC1CNC1)CN(C)C2=O

>  <observed>
90

$$$$
>  <mol_smiles>
Cc1cc2c([nH]1)/C=C1\C(=O)Nc3cc(Cl)c(cc31)OCCOCCN(C)C2=O

>  <observed>
70

$$$$

* * *

Target: kinases (Homo sapiens, UniProt P07949, V804L)
Construct: purchased Eurofins/DiscoveRx; host or cells: E. coli BL21-derived host (T7 phage display) for most kinases; HEK-293 for the rest
Sequence (P07949 29-1114 V804L): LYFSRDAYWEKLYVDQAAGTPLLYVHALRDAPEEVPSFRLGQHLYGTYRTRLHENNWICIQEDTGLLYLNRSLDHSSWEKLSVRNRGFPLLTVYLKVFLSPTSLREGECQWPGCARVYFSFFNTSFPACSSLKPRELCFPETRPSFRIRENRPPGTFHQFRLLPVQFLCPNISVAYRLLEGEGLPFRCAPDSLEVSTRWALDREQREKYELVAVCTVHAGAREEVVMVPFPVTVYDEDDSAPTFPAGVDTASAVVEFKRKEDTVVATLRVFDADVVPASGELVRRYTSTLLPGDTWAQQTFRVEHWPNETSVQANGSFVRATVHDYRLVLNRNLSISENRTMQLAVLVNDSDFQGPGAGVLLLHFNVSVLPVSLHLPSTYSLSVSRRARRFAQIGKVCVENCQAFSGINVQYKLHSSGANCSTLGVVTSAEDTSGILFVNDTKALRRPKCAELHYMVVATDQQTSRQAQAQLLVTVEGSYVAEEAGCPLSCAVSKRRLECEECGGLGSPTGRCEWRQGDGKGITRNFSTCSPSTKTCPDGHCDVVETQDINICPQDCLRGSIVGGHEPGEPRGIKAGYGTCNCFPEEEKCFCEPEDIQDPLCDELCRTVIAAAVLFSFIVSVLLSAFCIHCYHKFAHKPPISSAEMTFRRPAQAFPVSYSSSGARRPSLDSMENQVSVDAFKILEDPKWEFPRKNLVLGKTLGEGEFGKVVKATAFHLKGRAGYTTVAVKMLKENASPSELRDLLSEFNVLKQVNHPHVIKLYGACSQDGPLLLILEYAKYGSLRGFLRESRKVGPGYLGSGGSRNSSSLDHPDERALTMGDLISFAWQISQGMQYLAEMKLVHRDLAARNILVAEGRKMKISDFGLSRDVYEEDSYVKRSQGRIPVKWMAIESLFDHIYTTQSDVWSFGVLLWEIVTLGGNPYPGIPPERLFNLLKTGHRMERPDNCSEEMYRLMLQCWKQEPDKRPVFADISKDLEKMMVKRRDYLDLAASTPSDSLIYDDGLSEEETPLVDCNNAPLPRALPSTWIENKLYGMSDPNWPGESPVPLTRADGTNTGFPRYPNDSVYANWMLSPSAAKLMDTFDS
Experiment: KINOMEscan kinase binding assay (Eurofins/DiscoveRx), % Ctrl
Conditions: 1 μM; target RET(V804L)
Protocol: Kinase binding assays were performed at Eurofins/DiscoveRx using the general KINOMEscan Protocol (Fabian, M. A. et al., “A small molecule-kinase interaction map for clinical kinase inhibitors,” Nat. Biotechnol. 2005, 23(3):329-36). For most assays, kinase-tagged T7 phage strains were prepared in an E. coli host derived from the BL21 strain. […] The kinase concentration in the eluates was measured by qPCR. […]

>  <mol_smiles>
Cc1cc2c([nH]1)/C=C1\C(=O)Nc3cc(Cl)c(cc31)SCCOCCN(C)C2=O

>  <readout_units>
% Ctrl

>  <% Ctrl, RET(V804L)>
0.2

$$$$
>  <mol_smiles>
Cc1cc2c([nH]1)/C=C1\C(=O)Nc3ccc(cc31)-c1c(noc1C(C)C)COCCN(C)C2=O

>  <readout_units>
% Ctrl

>  <% Ctrl, RET(V804L)>
72

$$$$
>  <mol_smiles>
CN1CCOc2cc3c(cc2Cl)NC(=O)/C3=C\c2[nH]ccc2C(=O)N(C)CC1

>  <readout_units>
% Ctrl

>  <% Ctrl, RET(V804L)>
1.2

$$$$
>  <mol_smiles>
Cc1cc2c([nH]1)/C=C1\C(=O)Nc3ccc(cc31)-c1cnn(C)c1OCCCN(C)C2=O

>  <readout_units>
% Ctrl

>  <% Ctrl, RET(V804L)>
0.3

$$$$
>  <mol_smiles>
Cc1cc2c([nH]1)/C=C1\C(=O)Nc3cnc(cc31)-c1cnn(C)c1CN(C)CCN(C)C2=O

>  <readout_units>
% Ctrl

>  <% Ctrl, RET(V804L)>
0.5

$$$$
